meta.source: paper PMC8400955

- experiment description: 7-day repeated-dose PK in rats
- Type: in vivo, Sprague Dawley rats
- condition summary: male, Sprague Dawley (Crl: CD (SD)), rat, plasma, po, 400 mg/kg/day, day 1, PO 400 mg/kg/day, M
- Protocol: Groups of Sprague Dawley rats (n = 5/sex/group; n = 3/sex/TK group) were orally administered ZB716 (20% PG, 5% Solutol, and 75% of 40% HP-β-CD in DI water) at dose levels of 10, 100, and 400 mg/kg/day for 7 days. […] Systemic exposure, expressed as Cmax and AUClast values, increased with dose in a less than dose-proportional manner on days 1 and 7 (Figure 2). […]

compound	Cmax [ng/mL]
C[C@]12CC[C@@H]3c4ccc(B(O)O)cc4C[C@@H](CCCCCCCCC[S+]([O-])CCCC(F)(F)C(F)(F)F)[C@H]3[C@@H]1CC[C@@H]2O (stereo partly shown)	1920

====

- System: CYP1A2
- experiment description: CYP induction (enzyme activity) in cryopreserved human hepatocytes, CYP1A2
- condition summary: human, plated cryopreserved human hepatocytes, Fold Induction, donor one, 15 µM

compound	fold induction at 72 h, 15 µM
C[C@]12CC[C@@H]3c4ccc(B(O)O)cc4C[C@@H](CCCCCCCCC[S+]([O-])CCCC(F)(F)C(F)(F)F)[C@H]3[C@@H]1CC[C@@H]2O (stereo partly shown)	7.62

====

- experiment description: Metabolic stability in rat hepatocytes
- Type: in vitro ADME
- condition summary: read-out: In Vitro Clint

compound	hepatocyte CLint at 1 μM / µL/min/1e6 cells
C[C@]12CC[C@@H]3c4ccc(B(O)O)cc4C[C@@H](CCCCCCCCC[S+]([O-])CCCC(F)(F)C(F)(F)F)[C@H]3[C@@H]1CC[C@@H]2O (stereo partly shown)	48.7

====

- Tested on: CYP3A4
- experiment description: CYP induction (enzyme activity) in cryopreserved human hepatocytes, CYP3A4
- Format: in vitro ADME
- condition summary: human, plated cryopreserved human hepatocytes, donor one, 5 µM

molecule	fold induction at 72 h, 5 µM
C[C@]12CC[C@@H]3c4ccc(B(O)O)cc4C[C@@H](CCCCCCCCC[S+]([O-])CCCC(F)(F)C(F)(F)F)[C@H]3[C@@H]1CC[C@@H]2O (stereo partly shown)	1.24

====

- experiment description: 4-week repeat-dose toxicity/TK study in dogs
- Type: in vivo, beagle dogs
- condition summary: female, beagle, dog, plasma, po, 100 mg/kg/day, day 28, PO 100 mg/kg/day, F
- Method: The TK of ZB716 was investigated in a 4-week repeat-dose toxicity study in dogs. […] The plasma concentration of ZB716 was measured at various times up through to 24 h post-dose on days 1 and 28. […] Five microliters of diluted supernatant was injected into the LC–MS/MS system (Shimadzu LC30AD HPLC system with a SynergiTM 4 μm Fusion-RP 80 Å (50 × 2 mm) column using gradient elution and a Triple Quad 5500 mass spectrometer) for quantitative analysis. […]
measured parameter: AUC(0-t)

compound	measured parameter	result
C[C@]12CC[C@@H]3c4ccc(B(O)O)cc4C[C@@H](CCCCCCCCC[S+]([O-])CCCC(F)(F)C(F)(F)F)[C@H]3[C@@H]1CC[C@@H]2O (stereo partly shown)	AUC(0-t)	9650 ng·h/mL

====

- experiment description: Single-dose PK and bioavailability in dogs
- Format: in vivo
- condition summary: female, beagle, dog, plasma; single dose, PO 30 mg/kg/day, F
measured parameter: Tmax (h)

compound	measured parameter	unit info	number
C[C@]12CC[C@@H]3c4ccc(B(O)O)cc4C[C@@H](CCCCCCCCC[S+]([O-])CCCC(F)(F)C(F)(F)F)[C@H]3[C@@H]1CC[C@@H]2O (stereo partly shown)	Tmax	h	1

====

- Tested on: CYP2B6
- experiment description: CYP induction (enzyme activity) in cryopreserved human hepatocytes, CYP2B6
- condition summary: human, plated cryopreserved human hepatocytes, Fold Induction, donor three, 15 µM

compound	fold induction at 72 h, 15 µM
C[C@]12CC[C@@H]3c4ccc(B(O)O)cc4C[C@@H](CCCCCCCCC[S+]([O-])CCCC(F)(F)C(F)(F)F)[C@H]3[C@@H]1CC[C@@H]2O (stereo partly shown)	1.22

====

- experiment description: Single-dose PK and bioavailability in dogs
- Type: in vivo
- condition summary: male, beagle, dog, plasma; single dose, PO 100 mg/kg/day, M
- Experimental: […] […] All groups had one male and one female animal. Plasma samples were collected at various timepoints, through to 24 h post-dose, and analyzed for ZB716. […] The stock solution of ZB716 (5.0 mg/mL) and ZB716-d6 (1 mg/mL) in ACN:DI Water = 1:1 was prepared and stored at −20 ± 5 °C. […] This method is applicable for the determination of ZB716 in Sprague Dawley rat plasma and beagle dog plasma, with a lower limit of quantification of 20.0 ng/mL, and an upper limit of quantification of 10,000 ng/mL. […]

molecule	Tmax (h)
C[C@]12CC[C@@H]3c4ccc(B(O)O)cc4C[C@@H](CCCCCCCCC[S+]([O-])CCCC(F)(F)C(F)(F)F)[C@H]3[C@@H]1CC[C@@H]2O (stereo partly shown)	2

====

- experiment description: Single-dose PK and bioavailability in dogs
- Type: in vivo
- condition summary: male, beagle, dog, plasma; single dose, IV 2 mg/kg/day, M

compound	Tmax
C[C@]12CC[C@@H]3c4ccc(B(O)O)cc4C[C@@H](CCCCCCCCC[S+]([O-])CCCC(F)(F)C(F)(F)F)[C@H]3[C@@H]1CC[C@@H]2O (stereo partly shown)	5 min

====

- experiment description: 4-week repeat-dose toxicity/TK study in dogs
- Format: in vivo, beagle dogs
- condition summary: female, beagle, dog, plasma, po, 25 mg/kg/day, day 28, PO 25 mg/kg/day, F

molecule	AUC(0-t), ng·h/mL
C[C@]12CC[C@@H]3c4ccc(B(O)O)cc4C[C@@H](CCCCCCCCC[S+]([O-])CCCC(F)(F)C(F)(F)F)[C@H]3[C@@H]1CC[C@@H]2O (stereo partly shown) [ZB716, fulvestrant-3-boronic acid]	8000

====

- experiment description: 7-day repeated-dose TK in dogs
- Type: in vivo
- condition summary: female, beagle, dog, plasma, po, 200 mg/kg/day, day 1, PO 200 mg/kg/day, F
measured parameter: Cmax (ng/mL)

compound	unit info	number
C[C@]12CC[C@@H]3c4ccc(B(O)O)cc4C[C@@H](CCCCCCCCC[S+]([O-])CCCC(F)(F)C(F)(F)F)[C@H]3[C@@H]1CC[C@@H]2O (stereo partly shown) [ZB716, fulvestrant-3-boronic acid]	ng/mL	1740

====

- experiment description: Single-dose PK and bioavailability of ZB716 in rats
- Assay type: in vivo
- condition summary: male, Sprague Dawley, rat, plasma; single dose, PO 6 mg/kg/day, M

compound	Cmax / ng/mL
C[C@]12CC[C@@H]3c4ccc(B(O)O)cc4C[C@@H](CCCCCCCCC[S+]([O-])CCCC(F)(F)C(F)(F)F)[C@H]3[C@@H]1CC[C@@H]2O (stereo partly shown)	321

====

- experiment description: 7-day repeated-dose TK in dogs
- Format: in vivo
- condition summary: male, beagle, dog, plasma, po, 100 mg/kg/day, day 7, PO 100 mg/kg/day, M

molecule	unit info	Tmax
C[C@]12CC[C@@H]3c4ccc(B(O)O)cc4C[C@@H](CCCCCCCCC[S+]([O-])CCCC(F)(F)C(F)(F)F)[C@H]3[C@@H]1CC[C@@H]2O (stereo partly shown)	h	1

====

- experiment description: 7-day repeated-dose PK in rats
- Format: in vivo, Sprague Dawley rats
- condition summary: female, Sprague Dawley, rat, plasma, po, 100 mg/kg/day, day 7, PO 100 mg/kg/day, F; read-out: Tmax (median)
measured parameter: Tmax

molecule	measured parameter	result
C[C@]12CC[C@@H]3c4ccc(B(O)O)cc4C[C@@H](CCCCCCCCC[S+]([O-])CCCC(F)(F)C(F)(F)F)[C@H]3[C@@H]1CC[C@@H]2O (stereo partly shown)	Tmax	30 min

====

- System: CYP3A4
- experiment description: CYP induction (enzyme activity) in cryopreserved human hepatocytes, CYP3A4
- Type: in vitro ADME
- condition summary: human, plated cryopreserved human hepatocytes, donor three, 0.15 µM
measured parameter: fold induction at 72 h, 0.15 µM

compound	number
C[C@]12CC[C@@H]3c4ccc(B(O)O)cc4C[C@@H](CCCCCCCCC[S+]([O-])CCCC(F)(F)C(F)(F)F)[C@H]3[C@@H]1CC[C@@H]2O (stereo partly shown) [ZB716, fulvestrant-3-boronic acid]	0.61

====

- experiment description: 4-week repeat-dose toxicity/TK study in rats
- Assay type: in vivo, Sprague Dawley rats
- condition summary: female, Sprague Dawley (Crl: CD (SD)), rat, plasma, po, 100 mg/kg/day, day 28, PO 100 mg/kg/day, Female
measured parameter: AUC(0-t)

molecule	result
C[C@]12CC[C@@H]3c4ccc(B(O)O)cc4C[C@@H](CCCCCCCCC[S+]([O-])CCCC(F)(F)C(F)(F)F)[C@H]3[C@@H]1CC[C@@H]2O (stereo partly shown)	24500 ng·h/mL
